The reader will find reported Activity values listed item by item below.
tested on: Cortical neurone; test: Neuroprotective activity against oxygen glucose deprivation induced ischemic stroke model in primary C57BL/6J E14-17 mouse Cortical neurons assessed as increase in cell viability at 1 uM incubated for 24 hrs by CCK-8 assay (Rvb= 57.43 +/- 2.54 %); type: functional
Observed Property: Activity (%)

INSERT INTO assay_data (compound, units_text, obs_value) VALUES
  ('NCCCCN[C@@H]1CC[C@@H](c2ccc(Cl)c(Cl)c2)c2ccccc21 (relative stereo)', '%', 33.3),
  ('Clc1ccc([C@@H]2CC[C@@H](NCCCCc3ccccc3)c3ccccc32)cc1Cl (relative stereo)', '%', 57.11),
  ('COc1ccc(CN[C@@H]2CC[C@@H](c3ccc(Cl)c(Cl)c3)c3ccccc32)cc1 (relative stereo)', '%', 56.57),
  ('FC(F)(F)c1cccc(CN[C@@H]2CC[C@@H](c3ccc(Cl)c(Cl)c3)c3ccccc32)c1 (relative stereo)', '%', 65.74),
  ('Clc1ccc([C@@H]2CC[C@@H](NC3CCCCC3)c3ccccc32)cc1Cl (relative stereo)', '%', 61.62),
  ('NCCN[C@@H]1CC[C@@H](c2ccc(Cl)c(Cl)c2)c2ccccc21 (relative stereo)', '%', 24.79),
  ('Cc1cccc(CN[C@@H]2CC[C@@H](c3ccc(Cl)c(Cl)c3)c3ccccc32)c1 (relative stereo)', '%', 65.53),
  ('Clc1ccc([C@@H]2CC[C@@H](NCc3ccc4c(c3)OCO4)c3ccccc32)cc1Cl (relative stereo)', '%', 63.19),
  ('Clc1ccc([C@@H]2CC[C@@H](NCCN3CCNCC3)c3ccccc32)cc1Cl', '%', 56.76),
  ('Clc1ccc([C@@H]2CC[C@@H](NCc3cccc4ccccc34)c3ccccc32)cc1Cl (relative stereo)', '%', 61.36),
  ('O=C(CCCCl)N[C@@H]1CC[C@@H](c2ccc(Cl)c(Cl)c2)c2ccccc21 (relative stereo)', '%', 63.86),
  ('N[C@@H]1CC[C@@H](c2ccc(Cl)c(Cl)c2)c2ccccc21 (relative stereo)', '%', 57.14),
  ('Clc1ccc([C@@H]2CC[C@@H](NCCc3c[nH]c4ccccc34)c3ccccc32)cc1Cl (relative stereo)', '%', 52.97),
  ('Clc1ccc([C@@H]2CC[C@@H](NC3CC3)c3ccccc32)cc1Cl (relative stereo)', '%', 62.49),
  ('Clc1ccc(CN[C@@H]2CC[C@@H](c3ccc(Cl)c(Cl)c3)c3ccccc32)cc1Cl', '%', 58.46),
  ('CCCCN[C@@H]1CC[C@@H](c2ccc(Cl)c(Cl)c2)c2ccccc21 (relative stereo)', '%', 54.27),
  ('Clc1ccc([C@@H]2CC[C@@H](NCC3CCCCC3)c3ccccc32)cc1Cl (relative stereo)', '%', 64.56),
  ('CC1=NN(c2ccccc2)C(=O)C1', '%', 64.39),
  ('CCCN[C@@H]1CC[C@@H](c2ccc(Cl)c(Cl)c2)c2ccccc21 (relative stereo)', '%', 62.89),
  ('CC(=O)N[C@@H]1CC[C@@H](c2ccc(Cl)c(Cl)c2)c2ccccc21 (relative stereo)', '%', 66.22),
  ('CC(N[C@@H]1CC[C@@H](c2ccc(Cl)c(Cl)c2)c2ccccc21)c1ccccc1 (stereo partly specified)', '%', 45.67),
  ('Cc1ccc(CN[C@@H]2CC[C@@H](c3ccc(Cl)c(Cl)c3)c3ccccc32)cc1 (relative stereo)', '%', 60.9),
  ('CCCCCC(C)N[C@@H]1CC[C@@H](c2ccc(Cl)c(Cl)c2)c2ccccc21 (relative stereo)', '%', 58.02),
  ('CCCCCCN[C@@H]1CC[C@@H](c2ccc(Cl)c(Cl)c2)c2ccccc21 (relative stereo)', '%', 62.38),
  ('CC(C)CN[C@@H]1CC[C@@H](c2ccc(Cl)c(Cl)c2)c2ccccc21 (relative stereo)', '%', 56.47),
  ('COc1cccc(CN[C@@H]2CC[C@@H](c3ccc(Cl)c(Cl)c3)c3ccccc32)c1 (relative stereo)', '%', 51.08),
  ('COc1ccc(CN[C@@H]2CC[C@@H](c3ccc(Cl)c(Cl)c3)c3ccccc32)cc1OC (relative stereo)', '%', 62.06),
  ('CN[C@@H]1CC[C@@H](c2ccc(Cl)c(Cl)c2)c2ccccc21 (racemic)', '%', 59.29),
  ('CC(C)(C)OC(=O)N1CCN(CCN[C@@H]2CC[C@@H](c3ccc(Cl)c(Cl)c3)c3ccccc32)CC1 (relative stereo)', '%', 63.76),
  ('CC(C)(C)c1ccc(CN[C@@H]2CC[C@@H](c3ccc(Cl)c(Cl)c3)c3ccccc32)cc1 (relative stereo)', '%', 56.78),
  ('CC(C)(C)OC(=O)NCCN[C@@H]1CC[C@@H](c2ccc(Cl)c(Cl)c2)c2ccccc21 (relative stereo)', '%', 58.81);
